B1: library; numbered along this chain (parent)
chain: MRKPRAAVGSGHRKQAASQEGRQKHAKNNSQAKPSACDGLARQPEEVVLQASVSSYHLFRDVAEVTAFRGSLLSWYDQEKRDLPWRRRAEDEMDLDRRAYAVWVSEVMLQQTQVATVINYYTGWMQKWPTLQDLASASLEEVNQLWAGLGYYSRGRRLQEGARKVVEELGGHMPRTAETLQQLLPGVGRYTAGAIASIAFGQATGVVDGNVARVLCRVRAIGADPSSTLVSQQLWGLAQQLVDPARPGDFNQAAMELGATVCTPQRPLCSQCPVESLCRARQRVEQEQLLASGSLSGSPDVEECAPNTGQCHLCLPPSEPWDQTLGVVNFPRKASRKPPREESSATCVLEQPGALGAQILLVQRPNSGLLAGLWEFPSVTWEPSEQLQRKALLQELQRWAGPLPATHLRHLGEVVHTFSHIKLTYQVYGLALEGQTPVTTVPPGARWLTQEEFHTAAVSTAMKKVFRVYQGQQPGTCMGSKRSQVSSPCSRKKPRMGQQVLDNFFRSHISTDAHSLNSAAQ

variants of: B1; test: 8OG:A repair function score (normalized; synonymous = 0, nonsense = -1) (normalized log-likelihood score); higher = more repair activity (WT-like); settings: with 8OG:A DNA repair reporter (GFP) in HEK-293 MUTYH KO cells;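 note: cells sorted at 72 h after reporter transfection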
Group membership follows 8OG:A repair function score per the scheme low interval = under -0.4, middle interval = from -0.4 up to -0.1, high interval = -0.1 and over

* R189V | middle interval
* Q435A | high interval
* R81L | middle interval
* G155N | middle interval
* F59I | middle interval
* D61M | high interval
* L423P | low interval
* C262L | low interval
* L432R | middle interval
* A177E | middle interval
* G248Y | low interval

The values you see were collected from the supplement of paper PMC11908140.
